Target: CNGA4
Assay: pooled miR-30 sensor sort-seq; sequence = guide strand; note: reference of the scale not given here
Conditions: shRNA
Label rule, in plain words: sensor-assay potency score (higher = more potent) of -0.8 and up is class 1, under -0.8 is class 0.

[[record]]
residue_string = "TTGATGTTGGCTGTGCGGCGGT"
group_label = "class 1"

[[record]]
residue_string = "TACCTCGTTGGTCATCTTCTTG"
group_label = "class 0"

[[record]]
residue_string = "TAGATGACAGAGCTCATGCTAC"
group_label = "class 1"

[[record]]
residue_string = "TAGGTCTGAATAACCTAGGCTC"
group_label = "class 1"

[[record]]
residue_string = "ATACCAGTCAATAACTCGCCGC"
group_label = "class 0"

[[record]]
residue_string = "TCTCGGATGATGTACATCTCTT"
group_label = "class 0"

[[record]]
residue_string = "TAAGCTGTGCGGGTCTCTGTGC"
group_label = "class 1"

[[record]]
residue_string = "TACCAGTCAATAACTCGCCGCT"
group_label = "class 1"

[[record]]
residue_string = "ATGATGTACATCTCTTGGCCAA"
group_label = "class 0"

[[record]]
residue_string = "TAAGCAATCTTAAGTGCGCTGG"
group_label = "class 1"

[[record]]
residue_string = "TCGTTGGTCATCTTCTTGTTGA"
group_label = "class 0"

[[record]]
residue_string = "TTCATGTTGTAGATGACAGAGC"
group_label = "class 1"

[[record]]
residue_string = "TTCACCTGGTGAGTAGGTCTGG"
group_label = "class 1"


---

Target: BCL11A
Assay: pooled miR-30 sensor sort-seq; sequence = guide strand
Conditions: shRNA
Label rule, in plain words: sensor-assay potency score (higher = more potent) of -0.3 and up is met, under -0.3 is not met.

[[record]]
residue_string = "TAAAAGACAACATAGAATGTAT"
group_label = "met"

[[record]]
residue_string = "TTGACAACCAAGTAGATCTGGA"
group_label = "met"

[[record]]
residue_string = "TTGCACTATATTATCCTGCCAA"
group_label = "not met"

[[record]]
residue_string = "TGAAATTTGAACGTCTTGCCGC"
group_label = "met"

[[record]]
residue_string = "TTCACATTTGTAAACGTCCTTC"
group_label = "not met"

[[record]]
residue_string = "TTAATTGTCCTATCTGAGCAGG"
group_label = "not met"

[[record]]
residue_string = "ATAACAAGTAGAAAGAACCATC"
group_label = "not met"


---

Target: PPP2R4
Experiment: pooled miR-30 sensor sort-seq; sequence = guide strand
Details: shRNA
Label rule, in plain words: sensor-assay potency score (higher = more potent) of -0.01 and up is label 1, under -0.01 is label 0.

[[record]]
residue_string = "TTGAGGGTAAGGATGAATCCGA"
group_label = "label 0"

[[record]]
residue_string = "TTCATCTCGGTAATAAACAGGA"
group_label = "label 1"

[[record]]
residue_string = "TTTTGGAATGATGAAGTTCTGA"
group_label = "label 0"

[[record]]
residue_string = "TTTGGAATGATGAAGTTCTGAG"
group_label = "label 0"

[[record]]
residue_string = "TTCTCATCCACAAAGTGTCTGG"
group_label = "label 0"

[[record]]
residue_string = "TATTTGGTCATCCACCCGGAGC"
group_label = "label 0"

[[record]]
residue_string = "TGGAACTGTGTGGATCTCCTTT"
group_label = "label 0"

[[record]]
residue_string = "TCTGCTTCCTCGGAGACTCTGT"
group_label = "label 1"

